targetSystem: KDM5A (Homo sapiens, UniProt P29375)
Construct: Full length KDM5A enzyme was expressed and purified inhouse; made in house
Sequence (P29375 whole entry): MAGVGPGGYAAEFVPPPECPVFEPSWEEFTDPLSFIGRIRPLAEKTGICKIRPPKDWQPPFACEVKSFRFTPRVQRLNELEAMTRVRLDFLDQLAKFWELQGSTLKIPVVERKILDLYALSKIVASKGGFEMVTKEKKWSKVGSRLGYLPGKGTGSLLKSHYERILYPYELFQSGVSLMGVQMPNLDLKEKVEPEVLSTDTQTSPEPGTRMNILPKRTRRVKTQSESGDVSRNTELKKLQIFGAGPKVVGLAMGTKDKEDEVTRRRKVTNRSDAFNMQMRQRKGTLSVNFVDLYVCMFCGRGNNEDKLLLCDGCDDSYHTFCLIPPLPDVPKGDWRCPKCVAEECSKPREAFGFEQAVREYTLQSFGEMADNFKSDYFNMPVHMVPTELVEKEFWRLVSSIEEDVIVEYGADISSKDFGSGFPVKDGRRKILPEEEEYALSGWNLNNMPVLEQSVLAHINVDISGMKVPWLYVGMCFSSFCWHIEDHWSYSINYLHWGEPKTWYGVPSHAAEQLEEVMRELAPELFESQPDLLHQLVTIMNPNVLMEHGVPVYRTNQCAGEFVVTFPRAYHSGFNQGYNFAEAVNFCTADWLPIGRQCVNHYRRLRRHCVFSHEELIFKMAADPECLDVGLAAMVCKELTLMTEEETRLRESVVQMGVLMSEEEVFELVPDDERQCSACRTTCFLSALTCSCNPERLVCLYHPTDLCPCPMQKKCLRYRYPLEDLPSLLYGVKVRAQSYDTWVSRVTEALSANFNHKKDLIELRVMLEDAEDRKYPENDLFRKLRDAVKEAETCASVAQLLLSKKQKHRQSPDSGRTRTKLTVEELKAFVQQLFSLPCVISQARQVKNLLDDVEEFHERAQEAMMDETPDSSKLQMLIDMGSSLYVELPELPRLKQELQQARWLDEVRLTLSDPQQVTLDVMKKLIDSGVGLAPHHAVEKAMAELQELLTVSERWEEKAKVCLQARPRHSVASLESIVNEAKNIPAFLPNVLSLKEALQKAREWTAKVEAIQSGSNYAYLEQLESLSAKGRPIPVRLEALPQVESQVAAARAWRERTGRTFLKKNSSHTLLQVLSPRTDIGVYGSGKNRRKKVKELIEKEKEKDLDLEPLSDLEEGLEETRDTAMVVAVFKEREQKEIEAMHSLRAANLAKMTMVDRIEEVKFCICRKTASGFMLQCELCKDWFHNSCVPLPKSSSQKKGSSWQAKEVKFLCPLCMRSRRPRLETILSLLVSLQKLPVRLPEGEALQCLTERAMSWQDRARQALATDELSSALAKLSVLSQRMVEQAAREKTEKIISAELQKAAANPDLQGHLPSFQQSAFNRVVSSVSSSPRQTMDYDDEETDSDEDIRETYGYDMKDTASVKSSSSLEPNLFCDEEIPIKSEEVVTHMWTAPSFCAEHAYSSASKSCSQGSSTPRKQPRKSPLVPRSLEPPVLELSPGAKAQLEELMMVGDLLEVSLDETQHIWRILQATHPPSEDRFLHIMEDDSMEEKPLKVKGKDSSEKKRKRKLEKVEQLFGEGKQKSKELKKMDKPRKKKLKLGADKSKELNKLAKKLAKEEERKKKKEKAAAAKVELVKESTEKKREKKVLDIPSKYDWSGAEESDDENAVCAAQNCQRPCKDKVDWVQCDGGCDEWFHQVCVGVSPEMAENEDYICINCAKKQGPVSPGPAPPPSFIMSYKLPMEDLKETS
assayDetails: KDM5 enzyme assay, KDM5A HTRF (Example 463)
Format: biochemical
testConditions: compounds of Examples 1-432; read-out: Example 463 Assay KDM5A HTRF IC50
List of IC50 values.

molecule	IC50 [nM]
Cc1ccc(-c2[nH]c3c(C#N)cnn3c(=O)c2C(C)C)cc1	23
CC(=O)N1CCN(c2ccc(-c3[nH]c4c(C#N)cnn4c(=O)c3C(C)C)cc2)CC1	22
CC(C)c1c(C2=CCN(C(=O)OC(C)(C)C)C2)[nH]c2c(C#N)cnn2c1=O	60
CC(C)c1c(-c2ccn(C)c2)[nH]c2c(C#N)cnn2c1=O	24
COc1c(C)cc(-c2[nH]c3c(C#N)cnn3c(=O)c2C(C)C)cc1C	19
CC(C)c1c(-c2ccnn2CC2CC2)[nH]c2c(C#N)cnn2c1=O (single isomer, unassigned)	47
COc1ccc(-c2[nH]c3c(C#N)cnn3c(=O)c2C(C)C)cc1C(F)(F)F	31
CC(C)c1c(-c2cc(N)cc(C#N)c2)[nH]c2c(C#N)cnn2c1=O	24
